// values below are reported koff
- tested_target: T1, Recombinant MBP-mutCALR Type 1 fusion protein (human)
- T1 construct: custom made at Cepter; also called recombinant mutCALR protein
- assay_explanation: SPR, IgG captured, 1:1 fit, Exp. 1

{"binder": "anti-mutCALR antibody clone 2 (antibody, human IgG1, lambda, V domains shown, human IgG1) VH: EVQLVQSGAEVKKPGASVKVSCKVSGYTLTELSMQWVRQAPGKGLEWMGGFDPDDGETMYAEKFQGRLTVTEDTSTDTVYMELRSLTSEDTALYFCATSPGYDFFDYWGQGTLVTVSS VL: SYELTQPPSVSVAPGKTARITCGGDNIGSKSVHWYQQKPGQAPVLVVYDDSDRPSGIPERFSGSNSGNTATLTISRVEAGDEADYYCQVWDSSIDHLIFGGGTKVTVLG", "koff [s⁻¹]": 0.0123}
{"binder": "anti-mutCALR antibody clone 49 (antibody, human IgG1, lambda, V domains shown, human IgG1) VH: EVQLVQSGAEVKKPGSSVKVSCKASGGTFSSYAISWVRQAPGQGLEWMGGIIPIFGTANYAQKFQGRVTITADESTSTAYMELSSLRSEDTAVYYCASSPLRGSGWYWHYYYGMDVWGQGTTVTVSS VL: SYELTQPPSVSVAPGKTARITCGGNNIRAKHVHWYQQKPGQSPVLVIYQDSKRPSGIPERFSGSNSGSTATLTISRVEAGDEADYYCQVWDSSTVVFGGGTKLTVLG", "koff [s⁻¹]": 0.000669}
